- SYSTEM_TESTED: FRMPD2_2, Q68DX3
- Sequence (Q68DX3 944-1038): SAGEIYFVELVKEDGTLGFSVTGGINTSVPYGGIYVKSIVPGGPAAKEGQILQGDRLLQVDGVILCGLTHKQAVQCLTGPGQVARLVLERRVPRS
- PROTOCOL_NOTES: holdup assay
- Parameters: key: below the threshold = too weak to quantify, mostly under pKd 3.1 to 4
- CONDITION: plain residues with an end cap or a label only (N-terminal biotin on a linker: ado-ado)

BINDER: FNSYSLTGYV [CLDN2, P57739]
pKd: below the threshold
--
BINDER: PKRSFIESNV [TANC1, Q9C0D5]
pKd: 3.8
--
BINDER: CLREWCDAFL [BANF1, O75531]
pKd: below the threshold
--
BINDER: SNAGNTATKA [NOSTRIN, Q8IVI9]
pKd: below the threshold
